Biological target: Adenosine receptor A3 (Homo sapiens)
Sequence (P0DMS8 whole entry): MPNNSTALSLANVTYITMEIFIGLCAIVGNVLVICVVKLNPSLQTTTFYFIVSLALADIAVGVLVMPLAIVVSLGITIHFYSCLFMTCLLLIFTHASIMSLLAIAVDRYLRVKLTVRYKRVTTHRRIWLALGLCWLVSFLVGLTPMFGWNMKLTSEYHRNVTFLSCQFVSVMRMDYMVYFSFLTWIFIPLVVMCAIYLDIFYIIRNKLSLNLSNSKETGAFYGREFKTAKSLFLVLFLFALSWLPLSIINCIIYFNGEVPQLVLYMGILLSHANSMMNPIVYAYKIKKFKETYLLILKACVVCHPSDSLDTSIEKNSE
pKi: −log10 of the molar value.
Exercise: for every item that follows, state its recorded pKi.

Prompt line: # query: pKi of entry Cn1c(=O)c2c(nc(-c3ccccc3)n2O)n(C)c1=O
Response line: < 5.05

Prompt line: # query: pKi of entry Cn1c(=O)c2[nH]c(-c3ccc(S(=O)(=O)NCC(=O)O)cc3)nc2n(C)c1=O
Response line: < 5.00
